# measurementTarget: HA of A/Fort Monmouth/1/47 (H1N1) (influenza A virus)
# assayRemarks: cell-based or functional assay
valueType: Neutralization IC50, H1-FM47
Reply with the number, then its unit.

[[record]]
binder = "Antibody 5 (antibody, V domains shown) VH: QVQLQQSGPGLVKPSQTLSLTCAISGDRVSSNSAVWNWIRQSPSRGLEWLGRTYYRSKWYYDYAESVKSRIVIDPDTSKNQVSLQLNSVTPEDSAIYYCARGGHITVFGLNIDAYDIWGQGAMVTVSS VL: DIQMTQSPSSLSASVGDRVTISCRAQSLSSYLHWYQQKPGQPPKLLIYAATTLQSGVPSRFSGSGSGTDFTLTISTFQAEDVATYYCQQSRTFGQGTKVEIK"
valuetype = "Neutralization IC50, H1-FM47"
result = "0.86 µg/mL"


Dear colleague, could you please provide Neutralization IC50, H1-FM47 for the binders listed below?
1. Antibody 3 (antibody, V domains shown) VH: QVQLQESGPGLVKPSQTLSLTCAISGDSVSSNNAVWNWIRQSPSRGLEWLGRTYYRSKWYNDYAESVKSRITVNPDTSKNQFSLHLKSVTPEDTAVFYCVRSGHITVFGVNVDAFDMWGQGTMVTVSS VL: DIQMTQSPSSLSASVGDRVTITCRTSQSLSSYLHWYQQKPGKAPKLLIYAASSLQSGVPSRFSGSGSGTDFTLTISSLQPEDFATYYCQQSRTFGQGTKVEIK
2. Antibody 8 (antibody, V domains shown) VH: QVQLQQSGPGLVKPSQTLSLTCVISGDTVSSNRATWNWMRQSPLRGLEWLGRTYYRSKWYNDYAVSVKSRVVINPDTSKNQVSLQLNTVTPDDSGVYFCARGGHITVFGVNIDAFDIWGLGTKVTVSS VL: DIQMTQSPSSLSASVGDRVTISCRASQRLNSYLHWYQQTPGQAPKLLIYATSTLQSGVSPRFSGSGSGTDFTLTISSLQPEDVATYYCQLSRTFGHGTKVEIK
3. Antibody 6 (antibody, V domains shown) VH: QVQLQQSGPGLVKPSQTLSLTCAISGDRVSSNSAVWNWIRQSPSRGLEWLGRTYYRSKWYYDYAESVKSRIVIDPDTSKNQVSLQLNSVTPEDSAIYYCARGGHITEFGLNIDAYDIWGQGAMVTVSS VL: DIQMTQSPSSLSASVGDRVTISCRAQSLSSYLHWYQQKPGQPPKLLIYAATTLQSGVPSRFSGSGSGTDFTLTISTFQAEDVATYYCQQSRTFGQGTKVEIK

## Output
1. 0.92 µg/mL
2. 1.37 µg/mL
3. 3.04 µg/mL
